test system: IL-8 receptors (CXCR-1 and CXCR-2)
test details: Inhibition of binding of I125 labeled IL-8 to IL-8 receptors
measurement context: I125 labeled IL-8 as competitor; read-out: IC50, inhibition of binding of IL-8 to CXCR-1 and/or CXCR-2
Method: This example discloses the ability of compounds of the invention, such as benzopyrone derivatives, such as CTCM192 (1), to inhibit binding of IL-8 to IL-8 receptors (CXCR-1 and CXCR-2). The binding studies were conducted using I^125 labeled IL-8 as competitor.
measurement type: IC50 (µM)
Answers are plain numbers, in µM.

### Prompt Need IC50 of Cc1csc(-c2coc3cc(OC(=O)C(Cc4ccccc4)NC(=O)OCc4ccccc4)cc(C)c3c2=O)n1 (stereo not shown) [Compound 1] , thanks.
### Response 45
